# test_name: qHTS of pediatric cancer cell lines to identify multiple opportunities for drug repurposing: Primary screen for Rh30 cells (AID 1347107); note: nearly all actives have a fitted effect of over 75% in size
# condition_details: Rh30 rhabdomyosarcoma viability, CellTiter-Glo luminescence, 48 h; series mostly up to 46 µM
Records with an inconclusive call do not appear. Calls of active or inactive are those of the source. Calls come from the whole dose curve; as a rule, active = well fitted cell-killing curve with a large enough effect; inconclusive = small, poorly fitted or top-dose-only effect; inactive = no such curve, though single readings can be large or run the other way.
Entry note: the call must match one of active, inactive

Past entries and their recorded results:
>>> assigned_label("CO[C@@H](C(=O)N1Cc2[nH]nc(NC(=O)c3ccc(N4CCN(C)CC4)cc3)c2C1)c1ccccc1")
"inactive"
>>> assigned_label("CC(C)(Cc1ccc2ccccc2c1)NC[C@@H](O)COc1cccc(Cl)c1C#N")
"inactive"
>>> assigned_label("Clc1ccc(C(c2ccc(Cl)cc2)n2cc[n+](CC(OCc3ccc(Cl)cc3Cl)c3ccc(Cl)cc3Cl)c2)cc1 (stereo not drawn)")
"active"
>>> assigned_label("CCN(CC)C(=O)c1ccc(O)c(OC)c1")
"inactive"
>>> assigned_label("C[N+]1(C)[C@@H]2CC(OC(=O)[C@H](CO)c3ccccc3)C[C@H]1[C@H]1O[C@@H]12 (stereo partly drawn)")
"inactive"
>>> assigned_label("CC[C@@H]1C=C(C)C[C@H](C)C[C@H](OC)[C@H]2O[C@@](O)(C(=O)C(=O)N3CCCC[C@@H]3C(=O)O[C@H](C(C)=C[C@@H]3CC[C@H](Cl)[C@H](OC)C3)[C@H](C)[C@@H](O)CC1=O)[C@H](C)C[C@H]2OC")
"inactive"
>>> assigned_label("OC[C@@H](O)[C@H](O)[C@H](O)[C@@H](O)CO")
"inactive"

Below: the item to evaluate.
Please indicate how the test categorized Oc1ccc(C2=Cc3ccc(O)cc3OC2)cc1 .
active

* * *

# test_name: qHTS profiling of the MIPE4 collection as inhibitors of Plasmodium falciparum (3D7) proliferation (AID 743344);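 note: scaled between DMSO vehicle wells and 0.29 µM artemisinin as full inhibition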
# condition_details: P. falciparum 3D7 in erythrocytes, SYBR Green DNA fluorescence, 72 h; at 28.5 µM (top of the series) unless noted
recorded_metric: parasite growth, % of DMSO control (%)
Numbers only here, please. The scale is %.

Solved entries:
>>> value_observed("O=C(Nc1ccccc1Br)N[C@@H]1CCN(c2ccc(C(F)(F)F)cn2)C1")
73.6
>>> value_observed("O=C(OCC#CCSc1nnc(-c2cccc3ccccc23)o1)c1cc2ccccc2s1")
49.1
>>> value_observed("CC(=O)OC1C(C)OC(Oc2c(-c3ccc(O)cc3)oc3cc(O)cc(O)c3c2=O)C(O)C1OC(C)=O (centres undefined)")
11.3

Record request: parasite growth, % of DMSO control value, item COC(=O)N[C@H](C(=O)N1CCC[C@@H]1c1ncc(-c2ccc(-c3ccc(-c4cnc([C@@H]5CCCN5C(=O)[C@@H](NC(=O)OC)C(C)C)[nH]4)cc3)cc2)[nH]1)C(C)C
9.52

* * *

# test_name: Cellular Toxicity (caspase-3) Hek293 (AID 664);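 note: cells exposed to compound for 16 h at 37 °C before readout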
# condition_details: HEK293 caspase-3 activation
Results filed as inconclusive are left out. Calls of active or inactive are those of the source. Calls come from the whole dose curve; as a rule, active = well fitted activation curve with a large enough effect; inconclusive = small, poorly fitted or top-dose-only effect; inactive = flat fitted curve, though single readings scatter.
Entry note: the call must match one of active, inactive

>>> assigned_label("O=C1NC(=O)C(c2ccccc2)(c2ccccc2)N1")
"inactive"

Please indicate how the test categorized O=c1c(-c2ccc(O)cc2)coc2cc(O)ccc12 .
inactive

Follow-up entry: CCCNC(=O)NS(=O)(=O)c1ccc(Cl)cc1
inactive

Follow-up entry: CCn1cc(C(=O)O)c(=O)c2ccc(C)nc21
inactive

Follow-up entry: CC1=C(/C=C/C(C)=C/C=C/C(C)=C/C(=O)Nc2ccc(O)cc2)C(C)(C)CCC1
active

Follow-up entry: O=c1cc(-c2ccc(O)cc2)oc2cc(O)cc(O)c12
inactive

Follow-up entry: O=c1[nH]cnc2c1ncn2[C@H]1CC[C@@H](CO)O1
inactive

Follow-up entry: CC(=O)c1ccc(S(=O)(=O)NC(=O)NC2CCCCC2)cc1
inactive

Just for reference, PubChem BioAssay (NCATS) is where these values come from.
